Measured TGI by item
- System: HCC-2998 colon
- assay.details: NCI tumour cell line growth inhibition, 48 h
measurement.type: TGI (µM)

> print(dat)
                                   compound  result.operator  measured.value
1  CN1C(=O)N(C)C(N2CCCC2)c2c1nc1ccccn1c2=O (stereo not drawn)                >             100
2                  Clc1ccc(CSC2=NCCN2)cc1Cl                =            30.1
3  COc1cc(OC)cc(C2C(C#N)=C(N)Oc3c2ccc2ccc(O)cc32)c1 (stereo not drawn)                =            0.53

----------
- Test system: RXF 393 renal
- assay.details: NCI tumour cell line growth inhibition, 48 h
measurement.type: TGI

> print(dat)
                                    compound  measured.value
 1  CCOC(=O)c1c(-c2ccccc2)oc(=O)c(Cc2cccc3cccnc23)c1-c1ccccc1         > 10 µM
 2  CCOc1ccc(NC(=O)/C(=N\N)C(C(=O)OC)c2nc3ccc(Cl)cc3[nH]c2=O)cc1 (configuration not stated)        > 100 µM
 3  CCC(CN(C)C)C(=O)c1ccco1 (configuration not stated)        > 100 µM
 4                        CNC(=S)NC(=S)N(C)C        > 100 µM
 5  O=C1OC(CC(=O)c2ccccc2Cl)C(Cl)=C1Cl (configuration not stated)        > 100 µM
 6  CCCCCCCCCCCC[C@H](O)[C@H]1CC[C@H]([C@H](O)CCCC[C@H](O)CCCCC[C@@H](O)CC2=C[C@H](C)OC2=O)O1         33.2 µM
 7  CCN(CC)c1ccc2c(cc1=O)[C@@H](NC(C)=O)CCc1cc(OC)c(OC)c(OC)c1-2        > 100 µM
 8  C=CCOC(C)n1c(C)c(Br)c(=O)[nH]c1=O (configuration not stated)        > 100 µM
 9  C/C=C\C(CC(=O)O)CN1CCC2=C(C1)C(S(=O)(=O)C(F)(F)F)c1ccccc12 (configuration not stated)        > 100 µM
10  COC1=C(OC)C23CCc4ccc(OC)c(O)c4C2(CCN3)CC1=O (configuration not stated)        > 100 µM
11  NC(Cc1c[nH]c2ccccc12)P(=O)(O)O (configuration not stated)        > 100 µM
12  O=C(/C=C/c1cccc([N+](=O)[O-])c1)c1cccnc1         34.4 µM
13       CN(C)CCNC(=O)c1cnn(C)c1[N+](=O)[O-]        > 100 µM
14  c1ccc(CSc2nnc3c4c5c(sc4nc(-c4cccnc4)n23)CCCCCC5)cc1         13.1 µM
15  CC(=O)/C=C\C1CC2C=CC1C2 (configuration not stated)        > 100 µM
16        O=C(CC(Cl)(Cl)C(Cl)(Cl)Cl)c1ccccc1         4.25 µM
17  Cc1c2cnccc2c(C)c2c1c1ccccc1n2CC1CO1 (configuration not stated)         1.92 µM

----------
- Tested on: SF-539 CNS
- assay.details: NCI tumour cell line growth inhibition, 48 h
measurement.type: GI50

> print(dat)
                                    compound  study.target  measured.value
 1  Cc1cc(Nc2ncc(F)c(N[C@H]3[C@@H](C(N)=O)[C@@H]4C=C[C@H]3C4)n2)ccc1N1CCN(C)CC1    SF-539 CNS         36.2 nM
 2                            O=C(O)c1sccc1O    SF-539 CNS        28800 nM
 3  COc1ccc(F)cc1/C=C/C(=O)/C=C(/C=C/c1cc(F)ccc1OC)OB(F)F    SF-539 CNS         2400 nM
 4  N=C1S/C(=C/c2ccc(-c3ccc4c(c3)C(=O)NC4=O)o2)C(=O)N1c1ccc(Br)cc1    SF-539 CNS     > 100000 nM
 5  Cn1c(-c2c(N)n(Cc3ccc(C(F)(F)F)cc3)c3nc(C#N)c(C#N)nc23)nc2ccccc21    SF-539 CNS        19900 nM
 6  COc1cc(NC(=O)c2ccc(C(F)(F)F)nc2Nc2cc(Cl)ccc2C)cc(OC)c1OC    SF-539 CNS         9890 nM
 7  CCn1cc(C(=O)N/N=C/c2ccc(Br)cc2)c(=O)c2cc(F)c(N3CCNC(C)C3)c(F)c21 (stereo unspecified)    SF-539 CNS         1690 nM
 8  Cc1nc2ccccc2c(/C=C/c2ccc(Cl)cc2)c1C(=O)/C=C/c1ccc(F)cc1    SF-539 CNS         1760 nM
 9  COc1ccc(-c2c(C#N)c(N)nc3c2COc2ccc(F)cc2-3)cc1OC    SF-539 CNS         3380 nM
10   Nc1c(C(=O)Nc2ccccn2)sc2nc3c(cc12)CCCCC3    SF-539 CNS         1390 nM
11  O=C1Nc2ccccc2C1(c1c[nH]c2ccccc12)c1c[nH]c2ccccc12    SF-539 CNS         2070 nM
